System: 349418-098-R-PDC complex spheroid viability
Assay: Anticancer human tumor 349418-098-R-PDC patient-derived lung adenocarcinoma cell line growth inhibition; active means viability on the fitted dose curve at most 10% of control; inactive means the rest
Conditions: second compound 0.316 µM; first compound 0.0316 µM
Return exactly one item of y for active, n for inactive

What did this assay record as the result for CC(C)CC(NC(=O)CNC(=O)c1cc(Cl)ccc1Cl)B1OC(=O)CC(CC(=O)O)(C(=O)O)O1 (stereo unspecified) + NC1CC1c1ccc(-c2cccc(O)c2)cc1 ? y

GET /call?item= Nc1ncn(C2CC(O)C(CO)O2)c(=O)n1 (stereo unspecified) + NC1CCC(NC2CC2c2ccccc2)CC1 returns the recorded outcome of this test. n

Call for entry COc1ccc([C@@H](O)c2cc(-c3ncnc4cc(N5CCOCC5)ccc34)c(F)cc2Cl)nn1 + NC1CCC(NC2CC2c2ccccc2)CC1 : n

Recorded call for Nc1ncn(C2CC(O)C(CO)O2)c(=O)n1 (stereo unspecified) + NC1CC1c1ccc(-c2cccc(O)c2)cc1 ? n

Would you mind telling me which call this test gave CC(C)c1c(-c2ccccc2)nc2c(C#N)c[nH]n2c1=O + NC1CC1c1ccc(-c2cccc(O)c2)cc1 ? n

Record lookup: outcome of this test for CC(C)c1c(-c2ccccc2)nc2c(C#N)c[nH]n2c1=O + NC1CCC(NC2CC2c2ccccc2)CC1 ? n

* * *

Test system: 349418-098-R-PDC complex spheroid viability
Test: Anticancer human tumor 349418-098-R-PDC cell line growth inhibition;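 further: spheroids exposed to agents for seven days before readout; 100% = DMSO vehicle control wells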
Settings: second compound 1 µM; first compound 0.0316 µM; stronger effect = lower value
Could you mark each record 1.0 if its viability, T/C falls strictly under 50%, and 0.0 if it equals or exceeds it?

Molecule | Label Class
COc1cc(Nc2ncc3c(n2)-c2ccc(Cl)cc2C(c2c(F)cccc2OC)=NC3)ccc1C(=O)O + NC1CCC(NC2CC2c2ccccc2)CC1 | 1.0
CC1COCCN1c1cc(C2(S(C)(=N)=O)CC2)nc(-c2ccnc3[nH]ccc23)n1 (stereo not given) + NC1CCC(NC2CC2c2ccccc2)CC1 | 0.0
CC(C)c1c(-c2ccccc2)nc2c(C#N)c[nH]n2c1=O + NC1CCC(NC2CC2c2ccccc2)CC1 | 0.0

Please look at the following molecule next.
Lab note: viability, T/C threshold 50%. Does this molecule come in strictly under it? CC1(C)CCC(CN2CCN(c3ccc(C(=O)NS(=O)(=O)c4ccc(NCC5CCOCC5)c([N+](=O)[O-])c4)c(Oc4cnc5[nH]ccc5c4)c3)CC2)=C(c2ccc(Cl)cc2)C1 + NC1CCC(NC2CC2c2ccccc2)CC1 0.0

* * *

Tested on: 349418-098-R-PDC complex spheroid viability
Assay: Anticancer human tumor 349418-098-R-PDC cell line growth inhibition;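 further: spheroids exposed to agents for seven days before readout; 100% = DMSO vehicle control wells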
Conditions: second compound 1 µM; first compound 0.0316 µM; stronger effect = lower value
Measurement Kind: viability, T/C (%)
Expressed in %, but write only the number.

Reference set (4 entries):
Molecule | Assayed System | Unit Abbrev | Observed
COc1ccc([C@@H](O)c2cc(-c3ncnc4cc(N5CCOCC5)ccc34)c(F)cc2Cl)nn1 + NC1CCC(NC2CC2c2ccccc2)CC1 | 349418-098-R-PDC complex spheroid viability | % | 122
Nc1ncn(C2CC(O)C(CO)O2)c(=O)n1 (stereo unspecified) + NC1CCC(NC2CC2c2ccccc2)CC1 | 349418-098-R-PDC complex spheroid viability | % | 46
CC(C)CC(NC(=O)CNC(=O)c1cc(Cl)ccc1Cl)B1OC(=O)CC(CC(=O)O)(C(=O)O)O1 (stereo unspecified) + NC1CC1c1ccc(-c2cccc(O)c2)cc1 | 349418-098-R-PDC complex spheroid viability | % | 1.15
CC(C)CC(NC(=O)C(Cc1ccccc1)NC(=O)c1cnccn1)B(O)O (stereo unspecified) + NC1CCC(NC2CC2c2ccccc2)CC1 | 349418-098-R-PDC complex spheroid viability | % | 0.7

Fill in the recorded viability, T/C for this molecule, with 349418-098-R-PDC complex spheroid viability as test system: Nc1ncn(C2CC(O)C(CO)O2)c(=O)n1 (stereo unspecified) + NC1CC1c1ccc(-c2cccc(O)c2)cc1 83.4

viability, T/C of COc1cc(Nc2ncc3c(n2)-c2ccc(Cl)cc2C(c2c(F)cccc2OC)=NC3)ccc1C(=O)O + NC1CC1c1ccc(-c2cccc(O)c2)cc1 on 349418-098-R-PDC complex spheroid viability? 51.8
